Where these numbers come from: patent US5624917A

target: squalene synthetase (Rattus norvegicus, UniProt Q02769); construct: from tissue; host or cells: liver of male SD rats (microsome fraction); assay: Squalene synthetase inhibitory activity, rat enzyme (rat liver microsome fraction); assay type: biochemical; conditions: 5 μM [1-3H]farnesylpyrophosphoric acid, pH 7.4, 37° C., 45 minutes, read-out: IC50, squalene synthetase inhibitory activity, Rat enzyme
Sequence (Q02769 whole entry): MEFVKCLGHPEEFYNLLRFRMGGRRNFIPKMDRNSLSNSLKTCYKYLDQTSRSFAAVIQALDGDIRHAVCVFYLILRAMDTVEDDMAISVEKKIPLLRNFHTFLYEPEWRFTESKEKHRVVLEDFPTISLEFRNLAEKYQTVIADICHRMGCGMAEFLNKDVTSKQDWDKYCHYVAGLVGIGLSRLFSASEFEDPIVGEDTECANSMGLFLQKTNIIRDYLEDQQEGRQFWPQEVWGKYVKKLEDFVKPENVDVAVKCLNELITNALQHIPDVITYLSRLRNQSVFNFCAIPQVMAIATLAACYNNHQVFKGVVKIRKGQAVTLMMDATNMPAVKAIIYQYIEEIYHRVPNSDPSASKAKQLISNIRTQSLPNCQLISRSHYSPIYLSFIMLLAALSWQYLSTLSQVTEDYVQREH
Counter-ions that a name gives are not always drawn.
measured_parameter: IC50 (nM)
Give bare numbers, in nM.

Check out these entries, answers already filled in.
CC(C)=CCC/C(C)=C/CC/C(C)=C/CNC(P(=O)(O)O)P(=O)(O)O [compound 93]; 19
O=P(O)(O)C(NC1CCCCCC1)P(=O)(O)O; 940
O=P(O)(O)C(O)(CCCCCSc1ccccn1)P(=O)(O)O; 1300

Would you mind listing IC50 for each of the following compounds?
1. O=P(O)(O)C(NCCCCCCSc1nc2ccccc2s1)P(=O)(O)O
2. CCOP(=O)(OCC)C(NCCCCCc1ccccc1)P(=O)(OCC)OCC
3. O=P(O)(O)C(NCCCCNc1ccccc1)P(=O)(O)O [Compound No. 110, hydrochloride]
4. CCSCCCCCNC(P(=O)(O)O)P(=O)(O)O
5. CC(C)=CCC/C(C)=C/CC/C(C)=C/CNC(P(=O)(O)O)P(=O)(O)O [compound 99]
6. CC(C)CCCC(C)CCCC(C)CCC(P(=O)(O)O)P(=O)(O)O (stereo not shown)
7. CCOP(=O)(OCC)C(NCCCCCCSc1ccc(Cl)cc1)P(=O)(OCC)OCC

1. 4.3
2. 560
3. 44
4. 68
5. 6.9
6. 23
7. 6200

====

Target: squalene synthetase (Homo sapiens, UniProt P37268)
Construct: From the resulting sonicate, microsome fraction was obtained according to the same manner as that described in Experiment 1; endogenous in cells; host or cells: HepG2 human hepatoma cells (microsome fraction)
Sequence (P37268 1-417): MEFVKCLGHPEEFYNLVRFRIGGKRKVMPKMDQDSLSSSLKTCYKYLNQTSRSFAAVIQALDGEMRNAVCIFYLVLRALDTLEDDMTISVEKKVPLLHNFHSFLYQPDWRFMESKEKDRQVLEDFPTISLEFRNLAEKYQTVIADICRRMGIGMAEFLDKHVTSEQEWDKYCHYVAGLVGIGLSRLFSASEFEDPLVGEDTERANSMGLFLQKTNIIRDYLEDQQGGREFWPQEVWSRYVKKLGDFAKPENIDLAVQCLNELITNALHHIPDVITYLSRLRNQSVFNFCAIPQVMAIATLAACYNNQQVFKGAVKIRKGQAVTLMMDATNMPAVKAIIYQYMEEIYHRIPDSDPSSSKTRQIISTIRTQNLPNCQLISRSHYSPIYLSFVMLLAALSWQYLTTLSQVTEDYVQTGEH
Experiment: Squalene synthetase inhibitory activity, human enzyme (HepG2 microsome fraction)
Assay type: biochemical
Conditions: human hepatoma HepG2 microsome fraction; 5 μM [1-3H]farnesylpyrophosphoric acid, pH 7.4, 37° C., 45 minutes; read-out: IC50, squalene synthetase inhibitory activity, Human enzyme
measured_parameter: IC50 (nM)
Give bare numbers, in nM.

Check out these entries, answers already filled in.
CC(C)=CCC/C(C)=C/CC/C(C)=C/CNC(P(=O)(O)O)P(=O)(O)O [compound 99]; 6.7
CC(C)CCCC(C)CCCC(C)CCC(P(=O)(O)O)P(=O)(O)O (stereo not shown); 44
CC(C)CCCC(C)CCCC(C)CCNC(P(=O)(O)O)P(=O)(O)O (stereo not shown); 2.2

Would you mind listing IC50 for each of the following molecules?
1. CC(C)=CCC/C(C)=C/CC/C(C)=C/CNC(P(=O)(O)O)P(=O)(O)O [compound 93]
2. O=P(O)(O)C(NCCCCCC[S+]([O-])c1ccc2ccccc2c1)P(=O)(O)O (stereo not shown)
3. O=P(O)(O)C(NCCCC[S+]([O-])c1ccccc1)P(=O)(O)O (stereo not shown)
4. O=P(O)(O)C(NCCCCCSC1CCCCC1)P(=O)(O)O
5. O=P(O)(O)C(NCCCCCCSc1nc2ccccc2s1)P(=O)(O)O

1. 20
2. 4
3. 6.3
4. 18
5. 8.4

====

Target: squalene synthetase (Rattus norvegicus)
Construct: from tissue; host or cells: liver of male SD rats (microsome fraction)
Assay: Squalene synthetase inhibitory activity, rat enzyme (rat liver microsome fraction)
Type: biochemical
Conditions: 5 μM [1-3H]farnesylpyrophosphoric acid, pH 7.4, 37° C., 45 minutes, read-out: IC50, squalene synthetase inhibitory activity, Rat enzyme
Method: Squalene synthetase inhibitory activity and cholesterol biosynthesis inhibitory activity of the compounds used in the present invention were determined by the following method. Determination of squalene synthetase inhibitory activity The squalene synthetase inhibitory activity was determined as follows by using the enzyme solutions shown in Experiments 1 and 2 below. […]
pIC50: −log10 of the molar value.
Entry flag: satisfied if pIC50 reaches 8; not satisfied if it does not.

Sample answers from the record:
O=P(O)(O)C(NCCCCSc1ccccn1)P(=O)(O)O; not satisfied
O=P(O)(O)C(NCCCCCCCCCCCSc1ccccc1)P(=O)(O)O; satisfied
O=P(O)(O)C(CCCc1ccccc1)P(=O)(O)O; not satisfied
O=P(O)(O)C(NCCCCCCSc1ccccc1)P(=O)(O)O; satisfied
O=P(O)(O)C(NCCSCCc1ccccc1)P(=O)(O)O; not satisfied

For this compound, is measured pIC50 8 or higher? O=P(O)(O)C(NCCCCSc1ccccc1)P(=O)(O)O
not satisfied

For O=P(O)(O)C(NCCCCSc1ccncc1)P(=O)(O)O then?
not satisfied

For CCOP(=O)(OCC)C(NCCCCCCSc1ccccc1)P(=O)(OCC)OCC then?
not satisfied

For CCOP(=O)(OCC)C(NCCCCCSC1CCCCC1)P(=O)(OCC)OCC then?
not satisfied

For CC(C)=CCC/C(C)=C/CC/C(C)=C/CC(P(=O)(O)O)P(=O)(O)O then?
not satisfied

For CCOP(=O)(OCC)C(NCCSCCc1ccccc1)P(=O)(OCC)OCC then?
not satisfied

For O=P(O)(O)C(NCCCCCCCCCCC[S+]([O-])c1ccccc1)P(=O)(O)O (stereo not drawn) then?
satisfied

====

biological target: squalene synthetase (Homo sapiens, UniProt P37268); construct: From the resulting sonicate, microsome fraction was obtained according to the same manner as that described in Experiment 1; endogenous in cells; host or cells: HepG2 human hepatoma cells (microsome fraction); experiment: Squalene synthetase inhibitory activity, human enzyme (HepG2 microsome fraction); type: biochemical; details: human hepatoma HepG2 microsome fraction; 5 μM [1-3H]farnesylpyrophosphoric acid, pH 7.4, 37° C., 45 minutes; read-out: IC50, squalene synthetase inhibitory activity, Human enzyme
Structures can show the parent of a compound that is named as a salt.
measured_parameter: log10 of IC50 (log10 of the value in nM)
All values: log10 IC50 [nM].

Would you mind listing log10 of IC50 for each of the following molecules?
1. O=P(O)(O)C(NCCCCSc1ccccc1)P(=O)(O)O
2. CCSCCCCNC(P(=O)(O)O)P(=O)(O)O
3. O=P(O)(O)C(NCCCCNc1ccccc1)P(=O)(O)O [Compound No. 110, hydrochloride]
4. O=P(O)(O)C(NCCCCCCSc1nnc2ccccn12)P(=O)(O)O
5. O=P(O)(O)C(NCCCCCCCCCCCSc1ccccc1)P(=O)(O)O
6. O=P(O)(O)C(NCCCCSc1ccncc1)P(=O)(O)O

[0.95, 3.11, 1.79, 3.26, 0.48, 2.48]

Would you mind listing log10 of IC50 for each of the following molecules?
1. CCOP(=O)(OCC)C(NCCCCCc1ccccc1)P(=O)(OCC)OCC
2. CCOP(=O)(OCC)C(NCCSCCc1ccccc1)P(=O)(OCC)OCC
3. O=P(O)(O)C(O)(CCCCCSc1ccccn1)P(=O)(O)O
4. O=P(O)(O)C(NCCCCOc1ccc2c(c1)OCO2)P(=O)(O)O
5. O=P(O)(O)C(NCCCCCCCCCSc1ncccn1)P(=O)(O)O [compound 100]
6. O=P(O)(O)C(NCCCCCCCCCCC[S+]([O-])c1ccccc1)P(=O)(O)O (centres unmarked)
7. CC(C)=CCC/C(C)=C/CNC(P(=O)(O)O)P(=O)(O)O
8. O=P(O)(O)C(NCCCCCCCCCCSc1ncccn1)P(=O)(O)O

2.65
2.79
3.76
1.15
1.08
0.66
1.54
0.79

====

Assign IC50 to each entry below.
biological target: squalene synthetase (Rattus norvegicus, UniProt Q02769); construct: from tissue; host or cells: liver of male SD rats (microsome fraction); test: Squalene synthetase inhibitory activity, rat enzyme (rat liver microsome fraction); assay type: biochemical; details: 5 μM [1-3H]farnesylpyrophosphoric acid, pH 7.4, 37° C., 45 minutes, read-out: IC50, squalene synthetase inhibitory activity, Rat enzyme
Answers are plain numbers, in nM.

Check out these entries, answers already filled in.
COc1ccc(CSCCCCCCNC(P(=O)(O)O)P(=O)(O)O)cc1; 8.7
O=P(O)(O)C(NCCCC[S+]([O-])c1ccccc1)P(=O)(O)O (stereo not drawn); 9
O=P(O)(O)C(NCCCCCCCCCCCCSc1ccccc1)P(=O)(O)O; 8.1
O=P(O)(O)C(NCCCCCCCCCCSc1ncccn1)P(=O)(O)O; 7.8

Would you mind listing IC50 for each of the following compounds?
1. O=P(O)(O)C(NCCCCCC[S+]([O-])c1ccccc1)P(=O)(O)O (stereo not drawn)
2. CC(C)(C)SCCCCNC(P(=O)(O)O)P(=O)(O)O

1. 6
2. 760
